Reference for the values: patent US20120172293A1

Target: T1, human Y2 receptor (human, UniProt P49146 1-381)
T1 sequence (looked up): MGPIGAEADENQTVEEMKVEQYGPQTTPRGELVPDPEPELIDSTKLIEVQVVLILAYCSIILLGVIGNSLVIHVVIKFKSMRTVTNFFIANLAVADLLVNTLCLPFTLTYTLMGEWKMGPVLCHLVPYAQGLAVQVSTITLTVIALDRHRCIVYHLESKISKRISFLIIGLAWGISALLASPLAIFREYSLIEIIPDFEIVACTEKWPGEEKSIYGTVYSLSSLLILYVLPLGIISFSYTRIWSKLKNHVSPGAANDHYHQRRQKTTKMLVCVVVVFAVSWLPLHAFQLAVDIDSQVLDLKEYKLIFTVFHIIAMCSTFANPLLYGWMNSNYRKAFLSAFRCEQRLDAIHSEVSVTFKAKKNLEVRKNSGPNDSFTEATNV
Test: cell-based or functional assay
Non-standard residues stand in square brackets, D forms with d. No end group written: not given here. *: point of attachment. Morpholinocarbonyl = O=C(N1CCOCC1)*; Amidino = amidino group, N=C(N)*; Cha = N[C@@H](CC1CCCCC1)C(=O)O; 4Amb = NCc1ccc(C(=O)O)cc1; Aib = CC(C)(N)C(=O)O
Returns: string. Value is label 1 if measured GBA EC50 Ratio (vs PYY(3-36)), [35S]GTPγS is below 10 ratio, and label 0 if it is greater than or equal to it.

# strict comparison: is reported GBA EC50 Ratio (vs PYY(3-36)), [35S]GTPγS < 10 ratio? input = Amidino-E[dP]RH[Cha][Cha]NK[Aib]TRQR[Cha]-NH2 (SMILES C[C@@H](O)[C@H](NC(=O)C(C)(C)NC(=O)[C@H](CCCCN)NC(=O)[C@H](CC(N)=O)NC(=O)[C@H](CC1CCCCC1)NC(=O)[C@H](CC1CCCCC1)NC(=O)[C@H](Cc1c[nH]cn1)NC(=O)[C@H](CCCNC(=N)N)NC(=O)[C@H]1CCCN1C(=O)[C@H](CCC(=O)O)NC(=N)N)C(=O)N[C@@H](CCCNC(=N)N)C(=O)N[C@@H](CCC(N)=O)C(=O)N[C@@H](CCCNC(=N)N)C(=O)N[C@@H](CC1CCCCC1)C(N)=O, also called compound No. 190) [Amidino-[Glu23, D-Pro24, Cha27,28,36, Lys30, Aib31]-PYY(23-36)] label 1

# strict comparison: is reported GBA EC50 Ratio (vs PYY(3-36)), [35S]GTPγS < 10 ratio? input = Ac-Y[dP]RH[Cha][Cha]NL[Aib]TRQR[Cha]-NH2 (SMILES CC(=O)N[C@@H](Cc1ccc(O)cc1)C(=O)N1CCC[C@@H]1C(=O)N[C@@H](CCCNC(=N)N)C(=O)N[C@@H](Cc1c[nH]cn1)C(=O)N[C@@H](CC1CCCCC1)C(=O)N[C@@H](CC1CCCCC1)C(=O)N[C@@H](CC(N)=O)C(=O)N[C@@H](CC(C)C)C(=O)NC(C)(C)C(=O)N[C@H](C(=O)N[C@@H](CCCNC(=N)N)C(=O)N[C@@H](CCC(N)=O)C(=O)N[C@@H](CCCNC(=N)N)C(=O)N[C@@H](CC1CCCCC1)C(N)=O)[C@@H](C)O, also called compound No. 162) [Ac-[Tyr23, D-Pro24, Cha27,28,36, Aib31]-PYY(23-36)] label 1

# strict comparison: is reported GBA EC50 Ratio (vs PYY(3-36)), [35S]GTPγS < 10 ratio? input = Morpholinocarbonyl-E[dP]RH[Cha][Cha]NK[Aib]TRQR[Cha]-NH2 (SMILES C[C@@H](O)[C@H](NC(=O)C(C)(C)NC(=O)[C@H](CCCCN)NC(=O)[C@H](CC(N)=O)NC(=O)[C@H](CC1CCCCC1)NC(=O)[C@H](CC1CCCCC1)NC(=O)[C@H](Cc1c[nH]cn1)NC(=O)[C@H](CCCNC(=N)N)NC(=O)[C@H]1CCCN1C(=O)[C@H](CCC(=O)O)NC(=O)N1CCOCC1)C(=O)N[C@@H](CCCNC(=N)N)C(=O)N[C@@H](CCC(N)=O)C(=O)N[C@@H](CCCNC(=N)N)C(=O)N[C@@H](CC1CCCCC1)C(N)=O, also called compound No. 191) [Morpholinocarbonyl-[Glu23, D-Pro24, Cha27,28,36, Lys30, Aib31]-PYY(23-36)] label 1

# strict comparison: is reported GBA EC50 Ratio (vs PYY(3-36)), [35S]GTPγS < 10 ratio? input = Ac-FRAYINLITRQRY-NH2 (also called compound No. 34) [Ac-[Phe24, Ala26, Ile28,31]-PYY(24-36)] label 0

# strict comparison: is reported GBA EC50 Ratio (vs PYY(3-36)), [35S]GTPγS < 10 ratio? input = [4Amb]RAYINGITRQRY-NH2 (N-terminus assumed; SMILES CC[C@H](C)[C@H](NC(=O)CNC(=O)[C@H](CC(N)=O)NC(=O)[C@@H](NC(=O)[C@H](Cc1ccc(O)cc1)NC(=O)[C@H](C)NC(=O)[C@H](CCCNC(=N)N)NC(=O)c1ccc(CN)cc1)[C@@H](C)CC)C(=O)N[C@H](C(=O)N[C@@H](CCCNC(=N)N)C(=O)N[C@@H](CCC(N)=O)C(=O)N[C@@H](CCCNC(=N)N)C(=O)N[C@@H](Cc1ccc(O)cc1)C(N)=O)[C@@H](C)O, also called compound No. 45) [4-Aminomethylbenzoyl-[Ala26, Ile28,31, Gly30]-PYY(25-36)] label 0

# strict comparison: is reported GBA EC50 Ratio (vs PYY(3-36)), [35S]GTPγS < 10 ratio? input = [4Amb]RAWINLITRQRY-NH2 (N-terminus assumed; SMILES CC[C@H](C)[C@H](NC(=O)[C@H](Cc1c[nH]c2ccccc12)NC(=O)[C@H](C)NC(=O)[C@H](CCCNC(=N)N)NC(=O)c1ccc(CN)cc1)C(=O)N[C@@H](CC(N)=O)C(=O)N[C@@H](CC(C)C)C(=O)N[C@H](C(=O)N[C@H](C(=O)N[C@@H](CCCNC(=N)N)C(=O)N[C@@H](CCC(N)=O)C(=O)N[C@@H](CCCNC(=N)N)C(=O)N[C@@H](Cc1ccc(O)cc1)C(N)=O)[C@@H](C)O)[C@@H](C)CC, also called compound No. 51) [4-Aminomethylbenzoyl-[Ala26, Trp27, Ile28,31]-PYY(25-36)] label 1

# strict comparison: is reported GBA EC50 Ratio (vs PYY(3-36)), [35S]GTPγS < 10 ratio? input = {4‑(((imino(octylamino)methyl)amino)methyl)benzoyl}-RAYINLITRQRY-NH2 (also called compound No. 28) [4-({[imino(octylamino)methyl]amino}methyl)benzoyl-[Ala26, Ile28,31]-PYY(25-36)] label 0

# strict comparison: is reported GBA EC50 Ratio (vs PYY(3-36)), [35S]GTPγS < 10 ratio? input = Ac-GLRH[Cha][Cha]NL[Aib]TRQR[Cha]-NH2 (also: Gly1-Leu2 amide bond replaced by (E)-CH=CH alkene, -CONH- bond between Gly23 and Leu24 is substituted by (E) type alkene; also called compound No. 122) [Ac-[Gly23-ψ[(E)-CH═CH]-Leu24, Cha27,28,36, Aib31]-PYY(23-36)] label 0

# strict comparison: is reported GBA EC50 Ratio (vs PYY(3-36)), [35S]GTPγS < 10 ratio? input = Ac-[Cha]RAYINLITRQRY-NH2 (SMILES CC[C@H](C)[C@H](NC(=O)[C@H](Cc1ccc(O)cc1)NC(=O)[C@H](C)NC(=O)[C@H](CCCNC(=N)N)NC(=O)[C@H](CC1CCCCC1)NC(C)=O)C(=O)N[C@@H](CC(N)=O)C(=O)N[C@@H](CC(C)C)C(=O)N[C@H](C(=O)N[C@H](C(=O)N[C@@H](CCCNC(=N)N)C(=O)N[C@@H](CCC(N)=O)C(=O)N[C@@H](CCCNC(=N)N)C(=O)N[C@@H](Cc1ccc(O)cc1)C(N)=O)[C@@H](C)O)[C@@H](C)CC, also called compound No. 36) [Ac-[Cha24, Ala26, Ile28,31]-PYY(24-36)] label 0
